Source: the NIST ThermoML archive (doi:10.1016/j.jct.2012.09.019)

Experiment: refractive index (Na D-line) (dimensionless)
Details: 293.15 K; 101.33 kPa; Liquid; digital refractometer
Readout name: refractive index

{"Smi": "CCC(=O)O", "Obs value": 1.38682}
{"Smi": "CCCCCC(=O)O", "Obs value": 1.41692}
{"Smi": "CCCCC(=O)O", "Obs value": 1.40857}
{"Smi": "CCCC(=O)O", "Obs value": 1.39808}
{"Smi": "C1CCCCC1", "Obs value": 1.42631}
{"Smi": "CCCCCCC(=O)O", "Obs value": 1.4229}
{"Smi": "CCCCCCCCCCCCCCCC", "Obs value": 1.43461}

* * *

Details: Crystal; Heating/Cooling curves
Readout name: Normal melting temperature (°C)

{"Smi": "CCCCCCC(=O)O", "Endpoint unit": "°C", "Normal melting temperature": -7.5}

1: CCCCCC(=O)O
2: CCCCCCCCCCCCCCCC
3: C1CCCCC1
Query :: Sort by Normal melting temperature, descending. Enter labels, ranked according to the request.
Result :: 2, 3, 1

* * *

Settings: Crystal; Heating/Cooling curves
Readout name: Normal melting temperature (°C)

P: CCCC(=O)O [butanoic acid]
Q: CCCCC(=O)O [pentanoic acid]
R: CCC(=O)O [propanoic acid]
Query :: Please sort the compounds listed above from highest to lowest Normal melting temperature. Would you mind listing the labels in the order asked for?
Result :: P, R, Q
